molecular target: T1, Programmed cell death protein 1 (PD-1), human (human, UniProt Q15116 25-167, limits assumed); test: SPR affinity measurement, response in nm, four traces
T1 construct: also called full-length PD-1
T1 sequence (Q15116 25-167 limits assumed): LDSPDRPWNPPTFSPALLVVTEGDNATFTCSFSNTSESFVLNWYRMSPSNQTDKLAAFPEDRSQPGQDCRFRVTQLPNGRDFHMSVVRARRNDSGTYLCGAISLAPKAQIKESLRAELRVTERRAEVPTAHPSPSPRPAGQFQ
Reported pKd values follow for various binders
Worth noting: pKd values are minus log10 of concentrations stated in mol/L.

binder	experimental.result
1-H01-1 (antibody, V domains shown, From the in vitro scFv library of immunised mice; also called clone 1-H01-1) VH: QVQLQQPGAELVKPGASVKMSCKASGYTFTSYWMHWVKQRPGQGLEWIGVIDPSNSYTIYNQKFKGKATLTVDTSSSTAYMQLSSLTSEDSAVYYCARSPFDYWGQGTTLTVSS VL: DVVMTQSQKFMSTSVGDRVSVTCKASQNVGTNVAWYQQKPGQSPKALIYSASYRYSGVPDRFTGSGSGTDFTLTIRNVQSEDLAEYFCQQHNSYPFTFGGGTKLEIK	7.11

Problem: Consider the binder shown here: 1-C09-3 (antibody, V domains shown, From the in vitro scFv library of immunised mice) VH: QVQLQQPGAELVRPGTSVKLSCKASGYTFTSYWMHWVKERPGQGLEWIGVIDPSDSYTNYNQKFKDKATLTVDTSSSTAYMQLSSLTSEDSAVYYCARSPFDYWGQGTTLTVSS VL: DIQMTQSQKFMSTSVGDRVSVTCKASQNVGTNVAWYQQKPGQSPKALIYSASYRYSGVPDRFIGSGSGTDFTLTIRNVQSEDLAEYFCQQHNSYPFTFGGGTKLEIK What is its recorded pKd?
Solution: 7.08

Value source: patent US20240092909A1
